- TARGET: TNK1 (Homo sapiens, UniProt Q13470)
- Construct: purchased Carna Biosciences
- Sequence (Q13470 1-666): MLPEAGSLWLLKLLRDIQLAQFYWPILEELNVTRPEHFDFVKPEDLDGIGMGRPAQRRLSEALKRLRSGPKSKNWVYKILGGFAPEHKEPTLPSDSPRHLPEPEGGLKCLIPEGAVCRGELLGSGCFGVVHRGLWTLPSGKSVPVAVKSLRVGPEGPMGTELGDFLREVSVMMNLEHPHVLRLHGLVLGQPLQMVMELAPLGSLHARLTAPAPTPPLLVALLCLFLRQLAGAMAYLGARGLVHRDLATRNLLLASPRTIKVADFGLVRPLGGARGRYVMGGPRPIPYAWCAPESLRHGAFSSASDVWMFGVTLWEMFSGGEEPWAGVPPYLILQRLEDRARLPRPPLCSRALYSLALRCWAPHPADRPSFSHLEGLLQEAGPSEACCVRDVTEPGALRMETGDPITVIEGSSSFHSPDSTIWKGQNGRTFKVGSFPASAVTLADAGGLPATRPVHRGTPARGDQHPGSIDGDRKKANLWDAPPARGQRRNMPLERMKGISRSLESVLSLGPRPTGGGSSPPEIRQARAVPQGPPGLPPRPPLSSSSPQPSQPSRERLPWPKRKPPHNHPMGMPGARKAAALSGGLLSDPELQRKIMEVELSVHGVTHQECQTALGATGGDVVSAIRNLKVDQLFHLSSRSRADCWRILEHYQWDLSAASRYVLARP
- ASSAY_NAME: Kinase panel profiling at 1 µmol/L (mobility shift assay, Carna)
- Assay type: biochemical
- ASSAY_CONTEXT: 1 µmol/L of BTK inhibitor
ASSAY_READOUT: Percentage inhibition of kinase enzyme activity (%)

SMI | UNIT_OF_MEASURE | OBSERVED
O=C(c1ccc(Oc2ccccc2)cc1Cl)c1c[nH]c2ncnc(N[C@@H]3CC[C@@H](CO)OC3)c12 | % | 75.62
C=CC(=O)N1CCC[C@@H](n2nc(-c3ccc(Oc4ccccc4)cc3)c3c(N)ncnc32)C1 | % | 6.17
CC#CC(=O)N1CCC[C@H]1c1nc(-c2ccc(C(=O)Nc3ccccn3)cc2)c2c(N)nccn12 | % | -1.80
COc1ccc(F)cc1C(=O)NCc1ccc(-c2nn([C@@H](C)C(F)(F)F)c(N)c2C(N)=O)cc1 | % | 3.07

====

- TARGET: IGF1R (Homo sapiens)
- Construct: purchased Carna Biosciences
- Sequence (P08069 31-1367): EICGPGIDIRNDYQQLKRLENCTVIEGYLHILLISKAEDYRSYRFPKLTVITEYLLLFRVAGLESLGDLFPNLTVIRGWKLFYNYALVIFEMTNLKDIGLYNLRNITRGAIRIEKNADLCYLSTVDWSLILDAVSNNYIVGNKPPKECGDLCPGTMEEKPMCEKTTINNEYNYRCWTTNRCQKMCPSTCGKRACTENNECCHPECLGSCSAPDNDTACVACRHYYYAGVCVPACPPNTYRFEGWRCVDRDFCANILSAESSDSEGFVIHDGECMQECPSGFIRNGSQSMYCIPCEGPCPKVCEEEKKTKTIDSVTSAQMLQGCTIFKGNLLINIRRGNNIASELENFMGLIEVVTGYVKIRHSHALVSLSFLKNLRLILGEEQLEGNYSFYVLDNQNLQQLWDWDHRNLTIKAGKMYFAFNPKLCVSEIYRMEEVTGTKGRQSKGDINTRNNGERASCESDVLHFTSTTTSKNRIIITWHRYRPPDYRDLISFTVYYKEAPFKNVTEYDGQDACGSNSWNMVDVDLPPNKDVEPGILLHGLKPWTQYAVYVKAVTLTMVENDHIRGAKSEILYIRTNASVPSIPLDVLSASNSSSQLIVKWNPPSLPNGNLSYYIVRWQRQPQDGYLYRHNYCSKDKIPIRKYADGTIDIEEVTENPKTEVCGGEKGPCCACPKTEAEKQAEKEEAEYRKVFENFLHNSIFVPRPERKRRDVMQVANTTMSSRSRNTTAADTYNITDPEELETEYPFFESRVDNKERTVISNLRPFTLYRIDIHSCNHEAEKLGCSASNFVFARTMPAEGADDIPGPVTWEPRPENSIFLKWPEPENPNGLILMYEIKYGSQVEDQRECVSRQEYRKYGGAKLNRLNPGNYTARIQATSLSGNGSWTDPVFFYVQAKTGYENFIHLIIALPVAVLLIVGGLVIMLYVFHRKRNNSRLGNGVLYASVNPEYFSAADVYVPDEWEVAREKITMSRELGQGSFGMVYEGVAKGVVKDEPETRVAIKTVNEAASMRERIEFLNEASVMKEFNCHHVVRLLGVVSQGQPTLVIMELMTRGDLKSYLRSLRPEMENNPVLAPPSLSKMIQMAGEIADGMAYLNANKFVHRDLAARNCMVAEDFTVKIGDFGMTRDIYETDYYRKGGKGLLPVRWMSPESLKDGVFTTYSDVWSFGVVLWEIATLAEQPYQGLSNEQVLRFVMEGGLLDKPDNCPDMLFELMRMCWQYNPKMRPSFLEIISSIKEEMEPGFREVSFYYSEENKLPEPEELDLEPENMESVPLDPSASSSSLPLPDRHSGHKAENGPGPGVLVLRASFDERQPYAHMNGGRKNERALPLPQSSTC
- ASSAY_NAME: Kinase panel profiling at 1 µmol/L (mobility shift assay, Carna)
- Assay type: biochemical
- ASSAY_CONTEXT: 1 µmol/L of BTK inhibitor
ASSAY_READOUT: Percentage inhibition of kinase enzyme activity (%)

COMPOUND | OBSERVED
C=CC(=O)N1CCC[C@@H](n2nc(-c3ccc(Oc4ccccc4)cc3)c3c(N)ncnc32)C1 [ibrutinib] | 7.45
COc1ccc(F)cc1C(=O)NCc1ccc(-c2nn([C@@H](C)C(F)(F)F)c(N)c2C(N)=O)cc1 [pirtobrutinib] | 0.28
CC#CC(=O)N1CCC[C@H]1c1nc(-c2ccc(C(=O)Nc3ccccn3)cc2)c2c(N)nccn12 [acalabrutinib] | 0.47
O=C(c1ccc(Oc2ccccc2)cc1Cl)c1c[nH]c2ncnc(N[C@@H]3CC[C@@H](CO)OC3)c12 [nemtabrutinib] | 99.20
C=CC(=O)N1CCC([C@@H]2CCNc3c(C(N)=O)c(-c4ccc(Oc5ccccc5)cc4)nn32)CC1 [zanubrutinib] | 4.03
